Measured melting point values are reported for all entries that follow.
assayReadout: melting point

[[record]]
compound = "N=C(N)c1ccc2c(c1)N(CC(=O)c1ccc(Br)cc1)C(=O)CN2"
observed = "145 to 150 °C"

[[record]]
compound = "C[C@]12CCC(=O)N[C@@H]1CCc1cc(-c3ccc([N+](=O)[O-])cn3)ccc12"
observed = "123 to 124 °C"

[[record]]
compound = "CNC(=O)c1cnn(-c2cccc(Cl)c2)c1Cl"
observed = "163 to 165 °C"

[[record]]
compound = "Cc1ccc(N2C(=S)SCC2(C)O)nc1 (stereo unspecified)"
observed = "108 °C"

[[record]]
compound = "CCCCCCCCOc1ccc(-c2ccc(C(=O)Oc3ccc(C(C)(Br)C(=O)OC)cc3)cc2)cc1 (stereo unspecified)"
observed = "104 to 105 °C"

[[record]]
compound = "OC1Cc2cc(F)c(F)cc2C1"
observed = "57 to 58 °C"

